Field: log10 CC50 at 120 h. Provide a value for each of the compounds that follow.
- assay-method-text: Cytotoxicity against MDCK cells assessed as reduction in cell viability after 5 days by CCK-8 assay
- Assay type: cell-based, Canis lupus familiaris
- measurement-parameters: dog
Values reflect log10 of reported CC50 at 120 h (µM).

• Cc1cccc2nc(-c3c[nH]c4ncc(F)cc34)nc(N[C@H]3C4CCC(CC4)[C@@H]3C(=O)O)c12 = 0.67
• O=C(O)[C@H]1C2CCC(CC2)[C@@H]1Nc1nc(-c2n[nH]c3ncc(F)cc23)nc2ccsc12 = -0.70

Parameters: items (list). Returns: log10 CC50 at 120 h for each item.
1. O=C(O)[C@H]1C2CCC(CC2)[C@@H]1Nc1nc(-c2c[nH]c3ncc(F)cc23)nc2c1CCC2
2. Cn1cc(F)c2c(N[C@H]3C4CCC(CC4)[C@@H]3C(=O)O)nc(-c3c[nH]c4ncc(F)cc34)nc21
3. O=C(O)[C@H]1C2CCC(CC2)[C@@H]1Nc1nc(-c2c[nH]c3ncc(F)cc23)nc2c1SCC2
4. O=C(O)[C@H]1C2CCC(CC2)[C@@H]1Nc1nc(-c2c[nH]c3ncc(F)cc23)nc2cc(C(F)F)sc12

Output:
[1.00, -0.22, 0.65, 0.52]

Look at each compound and report its log10 CC50 at 120 h.
1. O=C(O)[C@H]1C2CCC(CC2)[C@@H]1Nc1nc(-c2n[nH]c3ncc(F)cc23)nc2sccc12
2. O=C(O)[C@H]1C2CCC(CC2)[C@@H]1Nc1nc(-c2c[nH]c3ncc(F)cc23)nc2c1CCS2

Output:
1: 0.43; 2: 0.75

---

Record form. Attribute: half-life at 1 µM. Fill in for each entry.
- assay-method-text: Half life in Sprague-Dawley rat liver microsomes at 1 uM preincubated for 10 mins followed by NADPH addition measured up to 60 mins by LC/MS/MS analysis
- Assay type: ADME, Microsome
Answers are plain numbers, in h.

- O=C(O)[C@H]1C2CCC(CC2)[C@@H]1Nc1nc(-c2c[nH]c3ncc(F)cc23)nc2c1SCC2: 1.92

Task: Given O=C(O)[C@H]1C2CCC(CC2)[C@@H]1Nc1nc(-c2n[nH]c3ncc(F)cc23)nc2sccc12 , state its recorded half-life at 1 µM.
Output: 1.08

---

- assay-method-text: Cytotoxicity against MDCK cells assessed as reduction in cell viability after 5 days by CCK-8 assay
- Format: cell-based, Canis lupus familiaris
- measurement-parameters: dog
hey, just use Criterion met if measured CC50 at 120 h is less than 1 µM, otherwise Criterion not met

• O=C(O)[C@H]1C2CCC(CC2)[C@@H]1Nc1nc(-n2ccc3ncc(F)cc32)ncc1F = Criterion not met

Task: Consider O=C(O)[C@H]1C2CCC(CC2)[C@@H]1Nc1nc(-c2c[nH]c3ncc(F)cc23)nc2sccc12 . Does its CC50 at 120 h lie strictly below 1 µM?
Output: Criterion met

Task: Further, for O=C(O)[C@H]1C2CCC(CC2)[C@@H]1Nc1nc(-c2c[nH]c3ncc(F)cc23)nc2cc(F)cnc12 ?
Output: Criterion not met

Task: Continue with O=C(O)[C@H]1C2CCC(CC2)[C@@H]1Nc1nc(-c2c[nH]c3ncc(F)cc23)nc2cccc(F)c12
Output: Criterion not met

Task: Okay, and O=C(O)[C@H]1C2CCC(CC2)[C@@H]1Nc1nc(-c2c[nH]c3ncc(F)cc23)nc2c1S(=O)(=O)CC2 ?
Output: Criterion not met

Task: Quick one: N#Cc1cn([C@H]2C3CCC(CC3)[C@@H]2C(=O)O)c2nc(-c3c[nH]c4ncc(F)cc34)ncc12
Output: Criterion not met

Task: Quick one: O=C(O)[C@H]1C2CCC(CC2)[C@@H]1N1CCOc2cnc(-c3c[nH]c4ncc(F)cc34)nc21
Output: Criterion not met

Task: Then what about the molecule N#Cc1csc2c(N[C@H]3C4CCC(CC4)[C@@H]3C(=O)O)nc(-c3c[nH]c4ncc(F)cc34)nc12 ?
Output: Criterion met
